Test system: Crj: CD(SD)IGS rats
Test: Urinary PAG/hippuric acid ratio by 1H NMR in rats
Details: rat urine, 300 mg/kg/day by gavage, 3 days, mean n = 3-4
Test readout: PAG/creatinine (first term of PAG + hippuric acid)
// print number alone

Task: Tell me PAG/creatinine (first term of PAG + hippuric acid) of CN(C)CCCN1c2ccccc2CCc2ccc(Cl)cc21 when tested on Crj: CD(SD)IGS rats.
Result: 0.20

Task: Give PAG/creatinine (first term of PAG + hippuric acid) for CNCCC(Oc1ccc(C(F)(F)F)cc1)c1ccccc1 (centres unmarked) tested on Crj: CD(SD)IGS rats.
Result: 0.20

Task: Under Crj: CD(SD)IGS rats, report PAG/creatinine (first term of PAG + hippuric acid) for CN(C)CCCN1c2ccccc2CCc2ccccc21
Result: 0.40

Task: Give Crj: CD(SD)IGS rats PAG/creatinine (first term of PAG + hippuric acid) for the following compound: CN(C)CCCN1c2ccccc2Sc2ccc(Cl)cc21
Result: 0.21

Task: Check Crj: CD(SD)IGS rats data and give PAG/creatinine (first term of PAG + hippuric acid) for CC/C(=C(\c1ccccc1)c1ccc(OCCN(C)C)cc1)c1ccccc1 .
Result: 0.63
